pIC50 values for the molecules below.
# system_tested: Dihydrofolate reductase (Homo sapiens)
# Sequence (P00374 whole entry): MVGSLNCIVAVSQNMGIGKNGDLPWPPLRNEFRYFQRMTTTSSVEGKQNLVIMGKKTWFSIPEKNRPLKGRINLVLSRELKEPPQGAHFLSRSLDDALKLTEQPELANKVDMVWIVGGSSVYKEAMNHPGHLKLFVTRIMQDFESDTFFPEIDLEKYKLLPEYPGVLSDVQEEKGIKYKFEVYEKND
# assay: Antimycobacterial activity against human dihydrofolate reductase (hDHFR)
FYI, pIC50 means -log10 of a concentration in mol per litre.

>  <smiles_str>
COc1cc(OC)cc(N(C)Cc2cnc3nc(N)nc(N)c3c2C)c1

>  <pIC50>
8.06

$$$$
>  <smiles_str>
Cc1ccc(Cl)cc1NCc1cnc2nc(N)nc(N)c2c1C

>  <pIC50>
8.21

$$$$
>  <smiles_str>
COc1ccc(NCc2cnc3nc(N)nc(N)c3c2C)cc1F

>  <pIC50>
7.85

$$$$
>  <smiles_str>
Cc1cc(Br)ccc1NCc1cnc2nc(N)nc(N)c2c1C

>  <pIC50>
8.23

$$$$
>  <smiles_str>
Cc1c(CNc2ccc3ccccc3c2)cnc2nc(N)nc(N)c12

>  <pIC50>
8.00

$$$$

Attention now shifts to the item below.
Lookup result for "Cc1c(CNc2cccc(Cl)c2)cnc2nc(N)nc(N)c12" ; measured pIC50: 7.77

Attribution: ChEMBL document CHEMBL1135401
